Biological target: PKCζ (Homo sapiens, UniProt Q05513)
Sequence (Q05513 1-592): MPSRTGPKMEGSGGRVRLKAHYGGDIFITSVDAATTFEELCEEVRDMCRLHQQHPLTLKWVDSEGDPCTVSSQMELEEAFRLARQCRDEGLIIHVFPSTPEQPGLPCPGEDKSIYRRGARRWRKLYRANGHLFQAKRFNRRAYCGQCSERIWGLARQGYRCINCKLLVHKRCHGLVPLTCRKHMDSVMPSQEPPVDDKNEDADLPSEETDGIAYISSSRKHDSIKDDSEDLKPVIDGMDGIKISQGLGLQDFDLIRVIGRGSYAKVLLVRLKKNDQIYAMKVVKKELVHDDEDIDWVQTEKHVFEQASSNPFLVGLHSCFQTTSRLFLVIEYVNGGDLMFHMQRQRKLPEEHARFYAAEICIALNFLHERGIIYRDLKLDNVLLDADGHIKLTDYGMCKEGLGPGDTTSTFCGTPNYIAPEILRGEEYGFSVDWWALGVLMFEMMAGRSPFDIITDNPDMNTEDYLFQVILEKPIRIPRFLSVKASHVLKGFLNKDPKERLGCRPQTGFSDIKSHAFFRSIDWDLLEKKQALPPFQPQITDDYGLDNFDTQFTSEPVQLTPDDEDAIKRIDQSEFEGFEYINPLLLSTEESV
Test: cell-free kinase activity assay
Type: biochemical
Conditions: 50 μM compound; DMSO control set 100%; read-out: percent of catalytic activity of the Kinase in the presence of compound as compared to the solvent control (DMSO): PKCζ
measurementType: remaining activity at 50 µM (%)

compound	unitSpec	remaining activity at 50 µM
O=C(O)/C=C(\CCc1ccc(Cl)cc1)c1ccccc1F	%	50

I: O=C(O)CC(CC(=O)N1Cc2ccc(Cl)cc2C1)c1ccc(Cl)cc1 (stereo not drawn)
II: O=C(O)/C=C1\c2ccccc2CC1Cc1ccc(Cl)cc1 (stereo not drawn)
**Query** Endpoint returns the identifier whose remaining activity at 50 µM is numerically larger, either I or II . Mark your answer with the label of the selected entry.
**Result** I
